# PonA2 (Mycobacteroides abscessus): Ki values follow
# Sequence (B1MFV7 entry or part of it): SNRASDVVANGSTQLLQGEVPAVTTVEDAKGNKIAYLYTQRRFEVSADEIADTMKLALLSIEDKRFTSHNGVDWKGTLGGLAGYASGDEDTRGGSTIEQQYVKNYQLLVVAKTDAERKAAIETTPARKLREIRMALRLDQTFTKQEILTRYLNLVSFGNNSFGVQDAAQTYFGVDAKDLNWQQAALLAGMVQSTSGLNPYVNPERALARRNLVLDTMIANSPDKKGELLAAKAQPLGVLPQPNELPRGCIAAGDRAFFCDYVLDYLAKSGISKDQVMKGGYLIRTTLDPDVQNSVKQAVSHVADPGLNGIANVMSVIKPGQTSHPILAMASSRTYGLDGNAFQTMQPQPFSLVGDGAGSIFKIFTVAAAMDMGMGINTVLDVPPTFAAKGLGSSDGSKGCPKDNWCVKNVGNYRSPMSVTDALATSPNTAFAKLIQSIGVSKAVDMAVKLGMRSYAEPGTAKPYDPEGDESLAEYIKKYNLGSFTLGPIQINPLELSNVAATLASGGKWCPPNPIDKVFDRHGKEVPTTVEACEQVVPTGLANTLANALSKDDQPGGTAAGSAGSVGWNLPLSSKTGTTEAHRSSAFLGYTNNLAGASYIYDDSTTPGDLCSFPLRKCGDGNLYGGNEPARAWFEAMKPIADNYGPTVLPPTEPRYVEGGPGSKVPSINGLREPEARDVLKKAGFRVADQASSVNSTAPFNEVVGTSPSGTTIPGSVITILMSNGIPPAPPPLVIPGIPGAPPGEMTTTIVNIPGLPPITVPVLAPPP
Kindly provide the numeric value in µM only, without the unit symbol.

{"columns": ["compound", "Ki, µM"],
 "data": [
  ["C[C@@H](O)[C@H]1C(=O)N2C(C(=O)O)=C(S[C@@H]3CN[C@H](C(=O)N(C)C)C3)[C@H](C)[C@H]12 [MEM, meropenem]", 0.143],
  ["C[C@@H](O)[C@H]1C(=O)N2C(C(=O)O)=C(SCCN=CN)C[C@H]12 [IPM, imipenem]", 3.14],
  ["CC[C@]12CC(S[C@@H]3CN[C@H](C(=O)N(C)C)C3)=C(C(=O)O)N1C(=O)[C@@H]2[C@@H](C)O [JDB/NA-1-208]", 0.352]
]}

Shifting focus to the compound that follows.
Ki lookup needed for C[C@@H](O)[C@H]1C(=O)N2C(C(=O)O)=C(S[C@@H]3CN[C@H](C(=O)N(C)C)C3)C[C@]12C [JDB/NA-1-157] , thanks.
0.00782

====

The reader will find Ki measurements below, all made with LDT5 (Mycobacteroides abscessus, UniProt B1MHQ4).
Sequence (B1MHQ4 entry or part of it): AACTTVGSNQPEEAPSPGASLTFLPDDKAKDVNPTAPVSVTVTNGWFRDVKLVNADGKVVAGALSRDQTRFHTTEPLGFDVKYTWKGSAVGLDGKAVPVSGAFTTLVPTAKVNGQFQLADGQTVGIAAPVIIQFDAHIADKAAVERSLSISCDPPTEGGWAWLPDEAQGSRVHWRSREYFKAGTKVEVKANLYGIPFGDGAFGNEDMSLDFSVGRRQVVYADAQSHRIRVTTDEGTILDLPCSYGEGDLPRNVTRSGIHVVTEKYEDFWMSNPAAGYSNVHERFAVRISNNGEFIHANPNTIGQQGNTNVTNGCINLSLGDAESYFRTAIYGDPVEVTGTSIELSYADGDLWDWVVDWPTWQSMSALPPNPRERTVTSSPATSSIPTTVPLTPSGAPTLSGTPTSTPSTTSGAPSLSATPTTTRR
Quick reminder: number only, in µM, skip the unit.

{"columns": ["compound", "endpoint", "quantitative_result"],
 "data": [
  ["C[C@@H](O)[C@H]1C(=O)N2C(C(=O)O)=C(SCCN=CN)C[C@H]12 [IPM, imipenem]", "Ki", 100]
]}

Report Ki for CC[C@]12CC(S[C@@H]3CN[C@H](C(=O)N(C)C)C3)=C(C(=O)O)N1C(=O)[C@@H]2[C@@H](C)O [JDB/NA-1-208] tested on LDT5 (Mycobacteroides abscessus, UniProt B1MHQ4).
28.9

====

procedure_details: Thermal stability in 7H9 broth at 30°C
test_settings: 7H9 broth
endpoint: half-life (h)
State the answer as a number, implicitly in h.

Given `C[C@@H](O)[C@H]1C(=O)N2C(C(=O)O)=C(SCCN=CN)C[C@H]12` , state its recorded half-life.
10

====

target_or_test_system: UniProt:B1MDC1
Sequence (B1MDC1 entry or part of it): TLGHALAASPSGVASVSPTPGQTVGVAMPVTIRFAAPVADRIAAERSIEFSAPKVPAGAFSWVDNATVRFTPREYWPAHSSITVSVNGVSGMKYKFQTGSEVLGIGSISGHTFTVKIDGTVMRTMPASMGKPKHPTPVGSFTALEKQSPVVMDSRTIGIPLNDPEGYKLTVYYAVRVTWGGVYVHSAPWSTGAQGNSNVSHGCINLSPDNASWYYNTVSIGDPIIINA
endpoint: pKi
Friendly reminder that pKi comes from taking -log10 of the concentration in mol/L.

Guide cases for pKi, answers given:
{"columns": ["structure_smiles", "quantitative_result"],
 "data": [
  ["C[C@@H](O)[C@H]1C(=O)N2C(C(=O)O)=C(S[C@@H]3CN[C@H](C(=O)N(C)C)C3)C[C@]12C", 5.10],
  ["CC[C@]12CC(S[C@@H]3CN[C@H](C(=O)N(C)C)C3)=C(C(=O)O)N1C(=O)[C@@H]2[C@@H](C)O", 5.96]
]}

Moving on to another molecule below.
Form entry - test system: UniProt:B1MDC1; read-out: pKi; molecule: `C[C@@H](O)[C@H]1C(=O)N2C(C(=O)O)=C(S[C@@H]3CN[C@H](C(=O)N(C)C)C3)[C@H](C)[C@H]12`
6.69

====

target_or_test_system: PBP B (Mycobacteroides abscessus, UniProt B1MP31)
Sequence (B1MP31 entry or part of it): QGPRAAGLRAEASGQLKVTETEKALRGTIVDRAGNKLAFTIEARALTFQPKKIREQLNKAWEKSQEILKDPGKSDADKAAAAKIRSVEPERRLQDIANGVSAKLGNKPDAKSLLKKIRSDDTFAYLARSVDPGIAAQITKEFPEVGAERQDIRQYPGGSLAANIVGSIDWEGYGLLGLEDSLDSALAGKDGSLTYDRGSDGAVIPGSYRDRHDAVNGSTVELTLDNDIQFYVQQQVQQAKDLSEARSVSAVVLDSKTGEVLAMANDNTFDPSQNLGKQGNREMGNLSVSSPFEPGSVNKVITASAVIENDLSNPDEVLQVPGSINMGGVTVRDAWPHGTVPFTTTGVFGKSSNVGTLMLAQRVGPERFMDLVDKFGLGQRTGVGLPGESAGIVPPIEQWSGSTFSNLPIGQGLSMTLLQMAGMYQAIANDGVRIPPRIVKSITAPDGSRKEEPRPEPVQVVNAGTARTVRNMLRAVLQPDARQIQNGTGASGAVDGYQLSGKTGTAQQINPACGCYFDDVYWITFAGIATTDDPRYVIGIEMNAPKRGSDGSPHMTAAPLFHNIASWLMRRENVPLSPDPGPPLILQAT
procedure_details: Apparent inhibition constant (nitrocefin, Dixon plot)
Assay type: biochemical
test_settings: Ki,app, PBP B
endpoint: Ki (µM)
Output spec: scalar in µM, unitless text.

Reported Ki, molecule `C[C@@H](O)[C@H]1C(=O)N2C(C(=O)O)=C(S[C@@H]3CN[C@H](C(=O)N(C)C)C3)C[C@]12C` : ____
4.9

====

System: Mab ATCC 19977
procedure_details: MIC testing against Mab ATCC 19977, single agent and combinations
Format: cell-based, Mycobacterium abscessus
test_settings: Mycobacteroides abscessus, ATCC19977, 48 h; alone (single agent); read-out: MIC
endpoint: MIC
Enter the number, and then the unit.

Example entries begin here.
{"columns": ["molecule", "endpoint", "result"],
 "data": [
  ["C[C@@H](O)[C@H]1C(=O)N2C(C(=O)O)=C(S[C@@H]3CN[C@H](C(=O)N(C)C)C3)C[C@]12C [JDB/NA-1-157]", "MIC", "0.5 µg/mL"],
  ["CO/N=C(\\C(=O)N[C@@H]1C(=O)N2C(C(=O)O)=C(COC(N)=O)CS[C@H]12)c1ccco1 [CXM, cefuroxime, reference compound]", "MIC", "4 µg/mL"]
]}

Now consider a different molecule.
Kindly state the measured MIC obtained for CCO/N=C(\C(=O)N[C@@H]1C(=O)N2C(C(=O)[O-])=C(Sc3nc(-c4cc[n+](C)cc4)cs3)CS[C@H]12)c1nsc(N)n1 [CFT, ceftaroline, reference compound] with Mab ATCC 19977.
16 µg/mL
